experimental.protocol: Fingolimod plasma concentration after oral administration to WT mice (UHPLC, MS-MS)
Format: in vivo
stated.conditions: both sexes, C57BL/6J, mouse, oral 1 mg/kg/day, 2nd week, read-out: Fingolimod levels in plasma
metric.name: concentration at 2 weeks (ng/mL)
Form entry: value (ng/mL) — number only.

Recorded result, CCCCCCCCc1ccc(CCC(N)(CO)CO)cc1 [fingolimod] , concentration at 2 weeks: 8.03
